This collection of values is drawn from patent US20060063759A1.

- System Tested: glucocorticoid receptor (Homo sapiens, UniProt P04150)
- Sequence (P04150 1-777): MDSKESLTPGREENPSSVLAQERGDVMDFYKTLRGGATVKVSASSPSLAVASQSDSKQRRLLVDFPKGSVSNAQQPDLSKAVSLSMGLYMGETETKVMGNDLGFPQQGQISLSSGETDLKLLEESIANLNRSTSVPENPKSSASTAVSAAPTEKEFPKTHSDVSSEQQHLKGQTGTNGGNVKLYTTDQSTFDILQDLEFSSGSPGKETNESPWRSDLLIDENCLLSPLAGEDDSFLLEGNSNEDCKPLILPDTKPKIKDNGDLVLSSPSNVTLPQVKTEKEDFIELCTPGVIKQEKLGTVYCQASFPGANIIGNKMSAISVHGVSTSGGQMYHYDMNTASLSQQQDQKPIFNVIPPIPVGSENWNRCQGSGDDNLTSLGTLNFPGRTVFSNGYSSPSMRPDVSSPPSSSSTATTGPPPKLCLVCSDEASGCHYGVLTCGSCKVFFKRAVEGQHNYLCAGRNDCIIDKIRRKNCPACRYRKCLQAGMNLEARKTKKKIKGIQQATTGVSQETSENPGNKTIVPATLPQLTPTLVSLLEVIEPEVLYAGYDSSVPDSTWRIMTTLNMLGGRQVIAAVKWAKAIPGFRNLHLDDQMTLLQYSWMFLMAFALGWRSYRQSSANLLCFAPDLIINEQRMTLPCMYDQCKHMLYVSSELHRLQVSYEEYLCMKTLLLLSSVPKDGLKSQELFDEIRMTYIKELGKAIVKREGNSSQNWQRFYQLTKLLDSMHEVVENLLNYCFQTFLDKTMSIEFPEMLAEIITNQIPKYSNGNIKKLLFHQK
# Lookup of reported Ki keyed by entry

Illustrative cases are given below, each with its answer.
| Molecule | Recorded Measurement |
| --- | --- |
| Fc1ccc(/C=C2\c3ccc(F)cc3CCc3ncccc32)cc1 | < 10000 nM |
| Oc1cc(O)cc(C=C2c3ccccc3CCc3ccccc32)c1 | < 500 nM |
| CS(=O)(=O)Nc1cccc(C=C2c3ccccc3CCc3cc(OCCc4ccccc4)ccc32)c1 | < 500 nM |
| NC(=O)c1cccc(C=C2c3ccccc3CCc3ccccc32)c1 | < 10000 nM |
| COc1cc(F)cc(C=C2c3ccccc3CCc3ccccc32)c1 | < 1000 nM |

What Ki value was documented for this molecule, C(=C1c2ccccc2CCc2ccccc21)c1ccc2nc[nH]c2c1 ?
< 10000 nM

Try the molecule COc1ccc2c(c1)CCc1ccccc1C2=Cc1ccc(O)cc1 (mixture of isomers)
< 1000 nM

Continue with CC/C(=C1\c2ccccc2COc2cc(F)ccc21)c1cccc(NS(C)(=O)=O)c1
< 500 nM

Queued: CS(=O)(=O)Nc1cccc(C(C(=O)O)=C2c3ccccc3CCc3ccccc32)c1
< 500 nM

And the next one, CS(=O)(=O)Nc1cc(F)cc(/C=C2/c3ccc(Cl)cc3COc3ccccc32)c1 ?
< 500 nM
